Entry source: PubChem BioAssay (NCI)

system: SK-OV-3 ovarian; assay: NCI tumour cell line growth inhibition, 48 h; in the data active means GI50 below about 0.43 µM; inactive means the rest
Classes to choose from: T for active, F for inactive

compound | groupLabel
N#CC1=C(N)OC2=C(CCOc3c2ccc2ccccc32)C1c1ccc(Br)cc1 (stereo not drawn) | F

Alright, here's another compound for you.
For CC12O[C@H](C[C@@H](OC(=O)CCC(=O)O)[C@H]1O)n1c3ccccc3c3c4c(c5c6ccccc6n2c5c31)C(=O)NC4=O , which call appears in the assay record?
T

----------
For each of the molecules below, state its TGI.
tested on: MCF7 breast; experiment: NCI tumour cell line growth inhibition, 48 h
Give bare numbers, in µM.

Example entries begin here.
molecule | valueKind | unitText | measured
COc1cccc(CCNc2c(C#N)c3n(c4ccccc4[n+]3C)c3ncccc23)c1 | TGI | µM | 5.13
O=C(CI)Nc1ccc(Br)cc1 | TGI | µM | 3.95
COc1cc2c[n+](C)c3c4cc(OC)c(OCc5ccccc5)cc4c(OCc4ccccc4)cc3c2cc1OC | TGI | µM | 21.9
COc1ccc2c(c1)C(=O)c1c-2n(CCCN(C)C)c(=O)c2cc([N+](=O)[O-])ccc12 | TGI | µM | 0.338
CC/C=C\C[C@H]1C/C=C2/C(=O)C(Cl)=C[C@@H]2C/C=C\CCCC(=O)O1 | TGI | µM | 2.61
O=C1/C(=C/c2ccc([N+](=O)[O-])o2)Oc2ccc(Cl)cc21 | TGI | µM | 3.92
N#Cc1c(N)nc(N2CCOCC2)c(C#N)c1-c1c(Cl)cccc1Cl | TGI | µM | 16.4
CN(C)c1ccc2[nH]c3c(C(N)=O)cc(=O)c(=O)c=3oc2c1 | TGI | µM | 8.64
O=C(NC1=C(Cl)C(=O)c2ccccc2C1=O)C(=O)C(C(=O)c1ccc2ccccc2c1)C1OC(=O)c2ccccc21 (stereo unspecified) | TGI | µM | 16.8
COc1ccc(C2=NNC(=O)c3ccccc3N2c2nc(-c3cccs3)nc3cc(OC)c(OC)cc23)cc1 | TGI | µM | 9

Provide measured TGI value, entry: CCCCCCCCCCCCOC1C(COCCN2CCCCC2)OC2OC(C)(C)OC21 (stereo unspecified)
3.23

----------
system: NCI-H23 lung; assay: NCI tumour cell line growth inhibition, 48 h; in the data active = GI50 below about 0.43 µM; inactive = the rest
Parameter call: string, one of true (1) = active, false (0) = inactive

Please indicate how the test categorized O=C(NCCNCCO)c1ccc(Nc2nc3ccccc3c3occc23)cc1 .
false (0)

Call for entry COc1cc(C(=O)n2nc(N)c3c(C)cc(C)nc32)cc(OC)c1OC :
false (0)

----------
system: UACC-257 melanoma; assay: NCI tumour cell line growth inhibition, 48 h; in the data active means GI50 below about 0.43 µM; inactive means the rest
Respond with a class label; see 1.0 for active, 0.0 for inactive

compound | groupLabel
Fc1ccc(Nc2nc(Nc3ccc(-c4nc5ccccc5[nH]4)cc3)c3cn[nH]c3n2)cc1 | 0.0
O=C1NC(=NCCc2ccc(Br)cc2)S/C1=C\c1ccc2ncccc2c1 | 0.0
COc1cnccc1Nc1nc(-c2nn(Cc3c(F)cc(OCCO)cc3F)c3ccccc23)ncc1OC | 0.0
CC1OC(O[C@@H]2C=C3CC[C@@H]4[C@H](CC[C@]5(C)[C@@H](c6ccc(=O)oc6)CC[C@]45O)[C@@]3(C)CC2)C(O)C(OC2OC(CO)C(O)C(O)C2O)C1O (some centres not stated) | 1.0
COC(=O)c1cc(-c2ccc(S(C)(=O)=O)cc2)[nH]c1N/N=C/c1c(Cl)cccc1Cl | 0.0
COC(=O)c1cc2cc(/C=C3/SC(=S)N(N(C(C)=O)C(C)=O)C3=O)oc2n1Cc1ccccc1 | 0.0
FC(F)(F)c1cccc(-c2[nH]ncc2-c2nnnn2-c2ccccc2)c1 | 0.0
COc1ccc2c(c1)C(=O)c1c-2n(CCCN(C)C)c(=O)c2cc([N+](=O)[O-])ccc12 | 1.0

Hello, I am checking results. What call was entered for CC12O[C@H](C[C@@H](OC(=O)CCC(=O)O)[C@H]1O)n1c3ccccc3c3c4c(c5c6ccccc6n2c5c31)C(=O)NC4=O ?
0.0

Tell me the recorded outcome of this test for CCOCCOCCOCCOCCOCCOCCOCCOCCOCCO (tested in a mixture with another compound) .
0.0

Please share the test call associated with O=C1Cc2cc(CCN3CCNCC3)c(Cl)cc2N1 .
0.0

Hi, sorry to bother you, what did the test record for CCc1c(C)c2cc(-n3c(-c4ccc(OC)cc4)csc3=N)c(O)c(C)c2oc1=O ?
0.0
